Reference source: PubChem BioAssay

assay: yeast AGP1-GFP level changes, GLN3 branch – cell-based, multiplex flow cytometry, S. cerevisiae, primary screen (AID 1887); settings: 3 h, at 10 µM, stronger effect = higher value;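 further: AGP1-GFP fusion strain of S. cerevisiae within a five-strain barcoded multiplex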
Results filed as inconclusive are left out.
READOUT LABEL: GFP response, % of DMSO (%)
Report as a plain number; the unit % is understood.

COMPOUND	UNIT SPEC	GFP response, % of DMSO
OCCN(Cc1nc(-c2ccc3c(c2)OCO3)no1)Cc1cccs1	%	89.4
O=C(/C=C/c1ccco1)Nc1ccccc1C(=O)O	%	109
CCOC(=O)C(NC(C)=O)C(O)c1ccc([N+](=O)[O-])cc1 (stereo not given)	%	99.2
C[C@]12CC[C@H]3[C@@H](CCC4=CC(=O)CC[C@@]43C)[C@@H]1CC[C@@H]2C(=O)CO	%	84.3
CC(C)CC(=O)Nc1ccc2oc(-c3ccncc3)nc2c1	%	83.8
O=C(CCC(=O)NCCO)NCCO	%	111

Exercise: For the compound shown here, CCc1ccc(CN(C)Cc2nc(Cc3ccccc3)no2)nc1 , give the reported GFP response, % of DMSO.
Solution: 112

Exercise: Please report the recorded GFP response, % of DMSO for CCOC(=O)C1=C[C@]2(CC)CCCN3CCc4c(n1c1ccccc41)[C@@H]32 .
Solution: 96.5

Exercise: Please look up its GFP response, % of DMSO: CC(=O)[C@@]1(O)CC[C@H]2[C@@H]3CCC4=CC(=O)CC[C@]4(C)[C@H]3[C@@H](O)C[C@@]21C
Solution: 96.4

Exercise: So what's the measured GFP response, % of DMSO for this one? COc1ccc(C=O)c(OC)c1
Solution: 104

* * *

biological target: ATP-binding cassette sub-family B member 6 (Homo sapiens); test: blockers of ABCB6-driven porphyrin uptake – K562-ABCB6 cells, flow cytometry, validation set, pilot screen (AID 588550); conditions: K562-ABCB6 porphyrin accumulation, 1 h, at 10 µM, stronger effect = higher value;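 further: 0% = DMSO wells and 100% = benzethonium chloride 70 µM positive control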
Peptide text beside a SMILES is read from it.
READOUT LABEL: inhibition (%)
Write the value in % as a bare number.

MOLECULE	UNIT SPEC	inhibition
C[C@@H]1C[C@H]2[C@@H]3C[C@H](F)C4=CC(=O)C=C[C@]4(C)[C@@]3(F)[C@@H](O)C[C@]2(C)[C@@]1(O)C(=O)COC(=O)C(C)(C)C	%	4
NC(=O)C1CCCNC1 (configuration not stated)	%	10
Cc1ccc2nc(C)c3c(c2c1)OC(C(C)(Cl)Br)C3 (configuration not stated)	%	1
Cc1ccsc1C1NC(=O)c2ccccc2N1 (configuration not stated)	%	6
CC1(C)CC(NC(=O)C23CCC(C)(C(=O)C2=O)C3(C)C)CC(C)(C)N1 (configuration not stated)	%	13
O=C(NCCc1c[nH]c2ccccc12)OCCSS(=O)(=O)O	%	7

Exercise: For the molecule shown here, Cc1[nH]nc(-c2ccc(O)cc2O)c1Oc1ccccc1 , give the reported inhibition.
Solution: 3

Exercise: Fill in: inhibition of CC(=O)NC(CC(C)C)C(=O)NC(Cc1ccccc1)C(N)=O (stereo not drawn) (Ac-Leu-Phe-NH2; configuration not given here) is ___
Solution: 13

Exercise: For the molecule O=Cc1ccc(OC(=O)c2cccnc2)cc1 , what inhibition is on record?
Solution: 4

* * *

target: GTPase HRas (Homo sapiens); assay: Ras wt fluorescent GTP loading blockade – biochemical, wildtype, multiplex bead flow cytometry, dose response (AID 1335); conditions: bead-based flow cytometry, Bodipy-GTP binding to GST-Ras; at 100 µM (top of the series) unless noted
// GTP binding, percent of control lookup, one value per entry
Response body: numeric value in %, unit text excluded.

Exercise: Quick check: GTP binding, percent of control on GTPase HRas (Homo sapiens), item O=C1c2ccccc2C(=O)N1CCCCN(C(=O)c1cc2ccccc2oc1=O)c1ccc(Cl)cc1 ?
Solution: 60.9

Exercise: Recorded GTP binding, percent of control for CN(/N=C/c1ccncc1)C1=NS(=O)(=O)c2ccccc21 with GTPase HRas (Homo sapiens), please?
Solution: 32.4

Exercise: Form: Entry = CCOc1cccc(-c2nn3c(-c4ccco4)nnc3s2)c1 | System = GTPase HRas (Homo sapiens) | GTP binding, percent of control = ____
Solution: 71.3

Exercise: GTPase HRas (Homo sapiens) / GTP binding, percent of control / COC(=O)n1c(=S)oc2cc(Cl)ccc21 : value?
Solution: 154

Exercise: Short answer please: GTP binding, percent of control, GTPase HRas (Homo sapiens), entry COc1ccccc1OCCn1cc(C(=O)O)c2ccc(Cl)cc21
Solution: 201
